Biological target: recombinant human CLK3 (Homo sapiens)
Assay: CLK3 kinase assay (LANCE Ultra)
Conditions: CLK3 0.5 nM, ATP 300 μM, 3 hours at 30° C.
OBSERVED_PROPERTY: IC50

Here's what some known entries look like.
CSCCN(C)c1c(O[C@H]2CC[C@@H](N)CC2)ccc2c1CC(C)(C)c1c(N)ncnc1-2 [Example 31]: 30 to 100 nM
Nc1ncnc2c1C1(CCCC1)Cc1c-2ccc(O[C@H]2CC[C@@H](N)CC2)c1NCC(=O)O [Example 79]: 30 to 100 nM

Q: Param item = COc1ccc2c(c1NC[C@@H]1CNC(=O)O1)CC(C)(C)c1c(N)ncnc1-2 [Example 82] ; retrieve measured IC50.
A: < 30 nM

Q: Which value of IC50 has been reported for CN(CC#N)C(=O)c1c(O[C@H]2CC[C@H](N)CC2)ccc2c1CC(C)(C)c1c(N)ncnc1-2 [Example 94] in the records?
A: 101 to 1000 nM

Q: Can you share its IC50? I mean this compound: CN(CC1CCOCC1)c1c(O[C@H]2CC[C@@H](N)CC2)ccc2c1CC(C)(C)c1c(N)ncnc1-2 [Example 29]
A: 101 to 1000 nM

Q: What does the data say about its IC50? Entry: CN(c1c(O[C@H]2CC[C@H](N)CC2)ccc2c1CC(C)(C)c1c(N)ncnc1-2)S(=O)(=O)CCC(=O)O [Example 69]
A: < 30 nM

Q: Tell me the measured IC50 of CN(CC(C)(C)C#N)c1c(O[C@H]2CC[C@H](N)CC2)ccc2c1CC(C)(C)c1c(N)ncnc1-2 [Example 91] , please.
A: < 30 nM

====

Target: recombinant human CLK3 (Homo sapiens, UniProt P49761)
Sequence (P49761 whole entry): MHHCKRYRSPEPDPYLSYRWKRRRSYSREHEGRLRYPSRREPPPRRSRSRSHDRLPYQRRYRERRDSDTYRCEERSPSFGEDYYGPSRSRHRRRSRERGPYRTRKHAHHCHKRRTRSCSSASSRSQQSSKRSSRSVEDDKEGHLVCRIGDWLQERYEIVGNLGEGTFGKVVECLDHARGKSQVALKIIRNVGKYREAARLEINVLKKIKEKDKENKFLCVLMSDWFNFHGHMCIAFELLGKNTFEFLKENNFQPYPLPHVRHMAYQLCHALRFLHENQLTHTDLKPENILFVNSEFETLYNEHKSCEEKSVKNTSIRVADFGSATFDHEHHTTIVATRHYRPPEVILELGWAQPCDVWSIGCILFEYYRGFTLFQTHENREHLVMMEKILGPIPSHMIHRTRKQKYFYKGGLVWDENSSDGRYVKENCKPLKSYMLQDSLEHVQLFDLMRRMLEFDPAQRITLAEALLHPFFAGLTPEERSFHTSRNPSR
Test: CLK3 kinase assay (LANCE Ultra)
Conditions: CLK3 0.5 nM, ATP 300 μM, 3 hours at 30° C.
pIC50: −log10 of the molar value.
OBSERVED_PROPERTY: pIC50

Guide cases for pIC50, answers given:
CN(C[C@@H]1CNC(=O)O1)c1c(Br)ccc2c1CC(C)(C)c1c(N)ncnc1-2: 7.00 to 7.52
CCCCN(C)c1c(O[C@H]2CC[C@H](N)CC2)ccc2c1CC(C)(C)c1c(N)ncnc1-2: 6.00 to 7.00

Read the next record carefully.
Q: # get_value(readout='pIC50', item= `CC1(C)Cc2c(ccc(O[C@H]3CC[C@H](N)CC3)c2S(=O)(=O)NCC#N)-c2ncnc(N)c21` )
A: 7.00 to 7.52

====

Molecular target: recombinant human CLK3 (Homo sapiens, UniProt P49761)
Experiment: CLK3 kinase assay (LANCE Ultra)
Conditions: CLK3 0.5 nM, ATP 300 μM, 3 hours at 30° C.
Let's look at some molecules and their measured IC50.

Below, each entry is followed by its recorded IC50 result.
CN(CCC#N)c1c(O[C@H]2CC[C@H](N(C)C)CC2)ccc2c1CC(C)(C)c1c(N)ncnc1-2: < 30 nM
CC1(C)Cc2c(ccc(O[C@H]3CC[C@H](N)CC3)c2NC2CC2)-c2ncnc(N)c21: 30 to 100 nM
CC1(C)Cc2c(ccc(O[C@H]3CC[C@H](N)CC3)c2N(CCC#N)C2CC2)-c2ncnc(N)c21: < 30 nM
CNC(=O)CN(C)c1c(O[C@H]2CC[C@@H](N)CC2)ccc2c1CC(C)(C)c1c(N)ncnc1-2: 101 to 1000 nM
CCNc1c(O[C@H]2CC[C@H](N)CC2)ccc2c1CC(C)(C)c1c(N)ncnc1-2: 30 to 100 nM
CN(Cc1cccnc1)c1c(O[C@H]2CC[C@H](N)CC2)ccc2c1CC(C)(C)c1c(N)ncnc1-2: 101 to 1000 nM

Q: So what's the measured IC50 for this one? `CC1(C)Cc2c(ccc(O[C@H]3CC[C@H](N)CC3)c2NS(=O)(=O)CCO)-c2ncnc(N)c21`
A: 30 to 100 nM

Q: What value of measured IC50 is listed for `CN(CCC(C)(C)O)c1c(O[C@H]2CC[C@H](N)CC2)ccc2c1CC(C)(C)c1c(N)ncnc1-2` ?
A: 101 to 1000 nM

Q: What value of IC50 has been reported for the following molecule? COc1ccc2c(c1NCc1nnc(C(C)F)o1)CC(C)(C)c1c(N)ncnc1-2 (centres unmarked)
A: 101 to 1000 nM

Q: # input molecule: `CN(CC(C)(C)O)c1c(O[C@H]2CC[C@H](N)CC2)ccc2c1CC(C)(C)c1c(N)ncnc1-2` ; wanted: its IC50
A: 30 to 100 nM

Q: What does the record list as IC50 for COc1ccc2c(c1NCC(O)CO)CC(C)(C)c1c(N)ncnc1-2 (centres unmarked) ?
A: 30 to 100 nM

Q: # input molecule: `CN(c1c(O[C@H]2CC[C@H](N)CC2)ccc2c1CC(C)(C)c1c(N)ncnc1-2)S(=O)(=O)CCC(N)=O` ; wanted: its IC50
A: < 30 nM

Q: Please look up its IC50: `CC1(C)Cc2c(ccc(Br)c2NC[C@@H]2CN(CCO)C(=O)O2)-c2ncnc(N)c21`
A: 30 to 100 nM

Q: Tell me the measured IC50 of `CN(CCO)c1c(O[C@H]2CC[C@@H](N)CC2)ccc2c1CC(C)(C)c1c(N)ncnc1-2` , please.
A: < 30 nM
